Can you tell me log10(Ki) for the items I'm about to list?
# targetOrTestSystem: CDK2/Cyclin A (Homo sapiens)
# measurementDescription: Inhibition of CDK2/Cyclin A Retinoblastoma Kinase Activity
# measurementConditions: apparent Ki, CDK2/proteolyzed cyclin A, Rb fragment substrate, 25 μM ATP
Where a name gives a salt, the structure may show the parent alone.
Friendly reminder: values = log10 of Ki, unit nM.

Parameter requested: log10(Ki). Apply to each item below.
1. CC(=O)N(C)C1CCN(CCCS(=O)(=O)N2CCC(Nc3nc(N)c(C(=O)c4c(F)cccc4F)s3)CC2)C1 (centres unmarked)
2. CC(C)NC(=O)N1CCC(Nc2nc(N)c(C(=O)c3c(F)cccc3F)s2)CC1
3. Nc1nc(NC2CCN(C(=O)c3ccc(Cl)nc3)CC2)sc1C(=O)c1c(F)cccc1F
4. Nc1nc(NC2CCN(S(=O)(=O)c3ccc(Cl)nc3)CC2)sc1C(=O)c1c(F)cccc1F
5. Nc1nc(NC2CCN(S(=O)(=O)c3ccc(CCN4CCCC4)nc3)CC2)sc1C(=O)c1c(F)cccc1F [Example N2, Hydrochloride Salt]

0.68
2.61
1.83
0.23
0.08

Batch lookup, log10(Ki) per entry.
1. CN(CCS(=O)(=O)N1CCC(Nc2nc(N)c(C(=O)c3c(F)cccc3F)s2)CC1)Cc1ccccc1
2. CN(C)CCOc1nc(S(=O)(=O)N2CCC(Nc3nc(N)c(C(=O)c4c(F)cccc4F)s3)CC2)cn1C [Example H25, Hydrochloride Salt]
3. Nc1nc(NC2CCN(S(=O)(=O)c3ccc(CCCN4CCCCC4)nc3)CC2)sc1C(=O)c1c(F)cccc1F [Example I14, Trifluoroacetic Acid Salt]
4. CN1CCN(c2ncc(S(=O)(=O)N3CCC(Nc4nc(N)c(C(=O)c5c(F)cccc5F)s4)CC3)cn2)CC1 [Example G34, Hydrochloride Salt]
5. N#Cc1ccccc1S(=O)(=O)N1CCC(Nc2nc(N)c(C(=O)c3c(F)cccc3F)s2)CC1
6. Nc1nc(NC2CCN(C(=O)c3ccc(I)cc3)CC2)sc1C(=O)c1c(F)cccc1F

1. 0.15
2. 1.30
3. 0.08
4. -0.09
5. 0.30
6. 1.83

---

Would you mind telling me the reported HCT-116 % Inhibition at 0.25 μM of each entry?
# Tested on: HCT-116 cell line
# measurementDescription: Inhibition of cell growth, tetrazolium salt (MTT) assay
# Format: cell-based
# measurementConditions: 0.25 μM compound; HCT-116; Table 3
Give bare numbers, in %.

Take a look at these entries with their results.
> print(dat)
                                   molecule                 reportedproperty  quantityunit  resultvalue
1  N#Cc1ccc(S(=O)(=O)N2CCC(Nc3nc(N)c(C(=O)c4c(F)cccc4F)s3)CC2)c(Cl)c1 [Example P71]  HCT-116 % Inhibition at 0.25 μM             %           21
2  Nc1nc(NC2CCN(S(=O)(=O)c3ccc(C(F)(F)F)cc3)CC2)sc1C(=O)c1c(F)cccc1F [Example P33]  HCT-116 % Inhibition at 0.25 μM             %           32
3  [N-]=[N+]=C1C=C(S(=O)(=O)N2CCC(Nc3nc(N)c(C(=O)c4c(F)cccc4F)s3)CC2)c2ccccc2C1=O [Example P83]  HCT-116 % Inhibition at 0.25 μM             %           26

Lab note: each molecule below needs its HCT-116 % Inhibition at 0.25 μM filled in.
1. Nc1nc(NC2CCN(S(=O)(=O)c3cccc(C(=O)O)c3)CC2)sc1C(=O)c1c(F)cccc1F [Example P29]
2. Nc1nc(NC2CCN(S(=O)(=O)c3ccc(Br)cc3)CC2)sc1C(=O)c1c(F)cccc1F [Example P12]
3. CS(=O)(=O)c1ccc(S(=O)(=O)N2CCC(Nc3nc(N)c(C(=O)c4c(F)cccc4F)s3)CC2)cc1 [Example P80]
4. Nc1nc(NC2CCN(S(=O)(=O)c3cccc(Cl)c3Cl)CC2)sc1C(=O)c1c(F)cccc1F [Example P39]

1. 21
2. 29
3. 29
4. 25

Hey, can you go through the list below and give me HCT-116 % Inhibition at 0.25 μM for every item?
1. CCc1cc(Br)ccc1S(=O)(=O)N1CCC(Nc2nc(N)c(C(=O)c3c(F)cccc3F)s2)CC1 [Example P78]
2. Nc1nc(NC2CCN(S(=O)(=O)c3ccc(CNC(=O)c4ccc(Cl)cc4)s3)CC2)sc1C(=O)c1c(F)cccc1F [Example P66]
3. Nc1nc(NC2CCN(S(=O)(=O)c3cccc4ccccc34)CC2)sc1C(=O)c1c(F)cccc1F [Example P1]

1. 23
2. 34
3. 32

Each of the following entries comes with a recorded value; kindly state HCT-116 % Inhibition at 0.25 μM for each.
1. Nc1nc(NC2CCN(S(=O)(=O)c3c(F)cccc3F)CC2)sc1C(=O)c1c(F)cccc1F [Example P67]
2. Nc1nc(NC2CCN(S(=O)(=O)c3ccc(-c4ccccc4)cc3)CC2)sc1C(=O)c1c(F)cccc1F [Example P65]
3. N#Cc1c(Cl)cccc1Oc1ccc(S(=O)(=O)N2CCC(Nc3nc(N)c(C(=O)c4c(F)cccc4F)s3)CC2)cc1 [Example P52]
4. Nc1nc(NC2CCN(S(=O)(=O)c3cccc4nsnc34)CC2)sc1C(=O)c1c(F)cccc1F [Example P62]
5. COc1ccc(S(=O)(=O)N2CCC(Nc3nc(N)c(C(=O)c4c(F)cccc4F)s3)CC2)cc1 [Example P20]

1. 25
2. 31
3. 22
4. 26
5. 43

---

Hi there, I'd appreciate the recorded pKi for every entry that follows.
# targetOrTestSystem: human CDK4 and genetically truncated (1-264) cyclin D3 (Homo sapiens)
# Sequence (P11802 whole entry, the tested form may be a part): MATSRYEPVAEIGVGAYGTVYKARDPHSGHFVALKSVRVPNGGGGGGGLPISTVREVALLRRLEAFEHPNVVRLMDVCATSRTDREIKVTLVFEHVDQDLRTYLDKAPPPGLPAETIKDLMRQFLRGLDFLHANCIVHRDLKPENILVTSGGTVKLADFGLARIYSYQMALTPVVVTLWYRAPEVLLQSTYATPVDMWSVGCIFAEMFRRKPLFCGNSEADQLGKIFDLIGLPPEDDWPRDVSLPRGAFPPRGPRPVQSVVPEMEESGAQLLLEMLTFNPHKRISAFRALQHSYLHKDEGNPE
# Sequence (P30281 1-264 partner): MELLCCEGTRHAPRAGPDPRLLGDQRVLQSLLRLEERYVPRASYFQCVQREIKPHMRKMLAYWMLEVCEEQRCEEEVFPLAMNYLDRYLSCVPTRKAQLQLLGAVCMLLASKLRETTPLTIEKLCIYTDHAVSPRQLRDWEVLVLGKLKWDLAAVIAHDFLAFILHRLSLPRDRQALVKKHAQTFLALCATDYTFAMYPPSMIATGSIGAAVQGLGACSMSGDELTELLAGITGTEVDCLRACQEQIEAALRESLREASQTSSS
# measurementDescription: Inhibition of CDK4/Cyclin D Retinoblastoma Kinase Activity
# measurementConditions: apparent Ki, CDK4/truncated cyclin D3, Rb fragment substrate, 25 μM ATP
Counter-ions that a name gives are not always drawn.
Give bare numbers, as −log10 of the molar value.

Worked examples follow.
> print(dat)
                                   molecule  reportedproperty  resultvalue
1  Nc1nc(NC2CCN(S(=O)(=O)c3ccc(-c4ncc[nH]4)cc3)CC2)sc1C(=O)c1c(F)cccc1F               pKi         9.29
2  Cn1cncc1-c1ccc(S(=O)(=O)N2CCC(Nc3nc(N)c(C(=O)c4c(F)cccc4F)s3)CC2)cc1 [Example F32, Trifluoroacetic Acid Salt]               pKi         9.05

Now consider a different molecule.
Report pKi for Cn1cnc(-c2ccc(S(=O)(=O)N3CCC(Nc4nc(N)c(C(=O)c5c(F)cccc5F)s4)CC3)cn2)c1 [Example I5, Hydrochloride] please. 9.17

---

# targetOrTestSystem: CDK2/Cyclin A (Homo sapiens)
# measurementDescription: Inhibition of CDK2/Cyclin A Retinoblastoma Kinase Activity
# Assay type: biochemical
# measurementConditions: read-out: % inhibition of CDK2 (@ 0.05 μM), compound at 0.05 μM
Given measured inhibition at 0.05 µM, output 1 if it is greater than or equal to 80% and 0 if not.

Recorded results for 5 molecules are shown here.
> print(dat)
                                   molecule  assignedclass
1  CCSCCNCCCS(=O)(=O)N1CCC(Nc2nc(N)c(C(=O)c3c(F)cccc3F)s2)CC1              1
2  CCCCCNCCCS(=O)(=O)N1CCC(Nc2nc(N)c(C(=O)c3c(F)cccc3F)s2)CC1              1
3  CN(C)C1CCN(CCCS(=O)(=O)N2CCC(Nc3nc(N)c(C(=O)c4c(F)cccc4F)s3)CC2)C1 (stereo not drawn)              0
4  Nc1nc(NC2CCN(S(=O)(=O)CCCNc3ccon3)CC2)sc1C(=O)c1c(F)cccc1F              0
5  CC(C)CCNCCCS(=O)(=O)N1CCC(Nc2nc(N)c(C(=O)c3c(F)cccc3F)s2)CC1              1

Please tell me: is the molecule Nc1nc(NC2CCN(S(=O)(=O)CCCNCc3ccccc3F)CC2)sc1C(=O)c1c(F)cccc1F at or over 80% in terms of inhibition at 0.05 µM? 1

# bool: inhibition at 0.05 µM of CCN(CC)CCCNCCCS(=O)(=O)N1CCC(Nc2nc(N)c(C(=O)c3c(F)cccc3F)s2)CC1 >= 80% 0

Threshold query (inhibition at 0.05 µM >= 80%) on Nc1nc(NC2CCN(S(=O)(=O)CCCNCC3CCCCC3)CC2)sc1C(=O)c1c(F)cccc1F 1

---

# Tested on: HCT-116 cell line
# measurementDescription: Inhibition of cell growth, tetrazolium salt (MTT) assay
# Assay type: cell-based
# measurementConditions: 0.25 μM compound; HCT-116; Table 4
reportedProperty: HCT-116 % Inhibition at 0.25 μM (%)
Answers are plain numbers, in %.

Please review the following examples before continuing.
> print(dat)
                                   molecule  targetortestsystem  resultvalue
1  Nc1nc(NC2CCN(C(=O)OCc3ccccc3)CC2)sc1C(=O)c1c(F)cccc1F [Example Q6]   HCT-116 cell line           38
2  Nc1nc(NC2CCN(C(=O)c3cccc(Br)c3)CC2)sc1C(=O)c1c(F)cccc1F [Example Q18]   HCT-116 cell line           92
3  COc1cc(OC)cc(C(=O)N2CCC(Nc3nc(N)c(C(=O)c4c(F)cccc4F)s3)CC2)c1 [Example Q23]   HCT-116 cell line           42
4  Nc1nc(NC2CCN(C(=O)Oc3ccccc3)CC2)sc1C(=O)c1c(F)cccc1F [Example Q4]   HCT-116 cell line           41
5  Nc1nc(NC2CCN(C(=O)c3ccc(C(F)(F)F)cc3)CC2)sc1C(=O)c1c(F)cccc1F [Example Q33]   HCT-116 cell line           16

List HCT-116 % Inhibition at 0.25 μM for every entry below, keeping the order given.
1. N#Cc1cccc(C(=O)N2CCC(Nc3nc(N)c(C(=O)c4c(F)cccc4F)s3)CC2)c1 [Example Q77]
2. Nc1nc(NC2CCN(C(=O)Cc3cccs3)CC2)sc1C(=O)c1c(F)cccc1F [Example Q65]
3. CN(C(=O)N1CCC(Nc2nc(N)c(C(=O)c3c(F)cccc3F)s2)CC1)c1ccccc1 [Example Q1]
4. COc1ccc(OC)c(CC(=O)N2CCC(Nc3nc(N)c(C(=O)c4c(F)cccc4F)s3)CC2)c1 [Example Q78]
5. Nc1nc(NC2CCN(C(=O)OCC3c4ccccc4-c4ccccc43)CC2)sc1C(=O)c1c(F)cccc1F [Example Q82]

1. 33
2. 27
3. 38
4. 37
5. 28

Please give HCT-116 % Inhibition at 0.25 μM, item by item, for the list that follows.
1. Nc1nc(NC2CCN(C(=O)c3ccc([N+](=O)[O-])cc3)CC2)sc1C(=O)c1c(F)cccc1F [Example Q71]
2. Cc1ccccc1C(=O)N1CCC(Nc2nc(N)c(C(=O)c3c(F)cccc3F)s2)CC1 [Example Q17]
3. Nc1nc(NC2CCN(C(=O)c3c(F)cccc3F)CC2)sc1C(=O)c1c(F)cccc1F [Example Q12]
4. Nc1nc(NC2CCN(C(=O)Oc3ccc([N+](=O)[O-])cc3)CC2)sc1C(=O)c1c(F)cccc1F [Example Q84]
5. Nc1nc(NC2CCN(C(=O)C3CC3)CC2)sc1C(=O)c1c(F)cccc1F [Example Q54]
6. Nc1nc(NC2CCN(C(=O)C3CCC3)CC2)sc1C(=O)c1c(F)cccc1F [Example Q56]
7. Nc1nc(NC2CCN(C(=O)COCc3ccccc3)CC2)sc1C(=O)c1c(F)cccc1F [Example Q75]
8. Nc1nc(NC2CCN(C(=O)/C=C/c3ccccc3)CC2)sc1C(=O)c1c(F)cccc1F [Example Q45]

30
34
46
40
35
35
39
31

Sourced from patent US20050101595A1
